assayed.target: T1, human GLP-1 receptor (human, UniProt P43220 24-463)
T1 construct: whole, on cells
method.summary: competitive SPA binding, displacement of 125I-GLP-1(7-36)NH2 from BHK membranes with human GLP-1R, low HSA (max. 0.001%)
Numbered stars: 1 amine (or outer) side, 2 acyl side, 3 side chain; on linkers, the order of the positions; unused ones are H or OH. Square brackets hold non-standard residues; d marks the D form. Side chains are listed from the residue outwards. Ends that are not written are not given here. * marks the point of attachment. Hexadecanoyl(16-SO3H) = O=C(CCCCCCCCCCCCCCCS(=O)(=O)O)*; εLys = N[C@@H](CCCCN[*:1])C(=O)[*:2]; AEEA = NCCOCCOCC(=O)O; Aib = CC(C)(N)C(=O)O
property.name: IC50 (nM)
Your answer should be a plain number; it is taken to be in nM.

Need IC50 of H[Aib]EGTFTSDVSK([AEEA-AEEA-εLys-Hexadecanoyl(16-SO3H)])YLEK([AEEA-AEEA-εLys-Hexadecanoyl(16-SO3H)])QAAREFIK([AEEA-AEEA-εLys-Hexadecanoyl(16-SO3H)])WLVRGRG (Full chemical name printed at h-0076) , thanks.
0.23
